Study System: Human TRPML1 (Homo sapiens, UniProt Q9GZU1, L15A/L16A/L577A/L578A)
Sequence (Q9GZU1 whole entry L15A/L16A/L577A/L578A): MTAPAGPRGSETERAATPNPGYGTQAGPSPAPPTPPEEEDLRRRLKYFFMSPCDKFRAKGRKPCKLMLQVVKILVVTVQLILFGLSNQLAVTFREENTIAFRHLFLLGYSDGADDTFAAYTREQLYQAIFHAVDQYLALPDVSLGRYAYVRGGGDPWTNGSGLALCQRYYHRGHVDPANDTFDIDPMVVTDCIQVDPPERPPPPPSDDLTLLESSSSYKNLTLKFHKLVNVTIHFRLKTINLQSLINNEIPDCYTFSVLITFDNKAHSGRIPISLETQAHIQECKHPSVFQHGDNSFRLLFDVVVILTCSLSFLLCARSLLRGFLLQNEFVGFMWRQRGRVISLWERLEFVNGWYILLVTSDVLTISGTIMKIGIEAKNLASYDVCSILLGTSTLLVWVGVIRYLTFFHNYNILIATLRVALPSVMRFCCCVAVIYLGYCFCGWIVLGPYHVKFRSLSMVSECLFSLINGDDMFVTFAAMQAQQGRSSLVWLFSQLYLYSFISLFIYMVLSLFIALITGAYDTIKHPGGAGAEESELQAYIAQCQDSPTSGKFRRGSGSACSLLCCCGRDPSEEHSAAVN
Assay Remarks: Fluorescent TRPML1 assay (Fluo4-AM, HEK-293 Trex cells expressing hTRPML1)
Experimental Parameters: fluorescent calcium assay, doxycycline-induced hTRPML1
EC50 for assorted compounds

- Compound: "C[C@@H]1CN(c2ncnc3c2c(-c2ccccc2)cn3-c2cc(C#N)ccn2)[C@@H](C)CN1C(=O)C1(O)CCC1 [Compound 109]"
  Study System: "Human TRPML1 (Homo sapiens, UniProt Q9GZU1, L15A/L16A/L577A/L578A)"
  EC50: "< 100 nM"
- Compound: "C[C@@H]1CN(c2ncnc3c2c(-c2ccccc2)cn3-c2cc(C#N)ccn2)[C@@H](C)CN1C(=O)CC(C)(C)O [Compound 159]"
  Study System: "Human TRPML1 (Homo sapiens, UniProt Q9GZU1, L15A/L16A/L577A/L578A)"
  EC50: "< 100 nM"
- Compound: "COC1(C(=O)N2C[C@H](C)N(c3ncnc4c3c(-c3ccccc3F)cn4-c3cc(C#N)ccn3)C[C@H]2C)CN(C)C1 [Compound 163]"
  Study System: "Human TRPML1 (Homo sapiens, UniProt Q9GZU1, L15A/L16A/L577A/L578A)"
  EC50: "< 100 nM"
- Compound: "C[C@@H]1CN(c2ncnc3c2c(-c2cccnc2)cn3-c2cc(C#N)ccn2)[C@@H](C)CN1C(=O)C(C)(C)O [Compound 115]"
  Study System: "Human TRPML1 (Homo sapiens, UniProt Q9GZU1, L15A/L16A/L577A/L578A)"
  EC50: "500 to 2000 nM"
- Compound: "C[C@@H]1CN(c2ncnc3c2c(-c2ccccc2F)cn3-c2cc(C#N)ccn2)[C@@H](C)CN1C(=O)C1(O)CCCC1 [Compound 121]"
  Study System: "Human TRPML1 (Homo sapiens, UniProt Q9GZU1, L15A/L16A/L577A/L578A)"
  EC50: "< 100 nM"
- Compound: "C[C@@H]1CN(c2nccc3c2c(-c2ccncc2)cn3-c2cccc(Cl)c2)[C@@H](C)CN1C(=O)C(C)(C)O [Compound 142]"
  Study System: "Human TRPML1 (Homo sapiens, UniProt Q9GZU1, L15A/L16A/L577A/L578A)"
  EC50: "500 to 2000 nM"
- Compound: "Cc1cnccc1-c1cn(-c2cc(C#N)ccn2)c2ncnc(N3C[C@@H](C)N(C(=O)C(C)(C)O)C[C@@H]3C)c12 [Compound 147]"
  Study System: "Human TRPML1 (Homo sapiens, UniProt Q9GZU1, L15A/L16A/L577A/L578A)"
  EC50: "500 to 2000 nM"
- Compound: "CC(C)[C@H]1CN(C(=O)C(C)(C)O)[C@H](C)CN1c1ncnc2c1c(-c1ccccc1)cn2-c1cc(C#N)ccn1 [Compound 131]"
  Study System: "Human TRPML1 (Homo sapiens, UniProt Q9GZU1, L15A/L16A/L577A/L578A)"
  EC50: "100 to 500 nM"
- Compound: "C[C@@H]1CN(c2ncnc3c2c(-c2ccncc2)cn3-c2cc(C#N)ccn2)[C@@H](C)CN1C(=O)C1(O)CC1 [Compound 149]"
  Study System: "Human TRPML1 (Homo sapiens, UniProt Q9GZU1, L15A/L16A/L577A/L578A)"
  EC50: "500 to 2000 nM"
- Compound: "C[C@@H]1CN(c2ncnc3c2c(-c2ccccc2)cn3-c2cc(C#N)ccn2)[C@@H](C)CN1C(=O)C1(O)CC1 [Compound 156]"
  Study System: "Human TRPML1 (Homo sapiens, UniProt Q9GZU1, L15A/L16A/L577A/L578A)"
  EC50: "500 to 2000 nM"
- Compound: "C[C@@H]1CN(c2ncnc3c2c(-c2ccccc2F)cn3-c2cc(C#N)ccn2)[C@@H](C)CN1C(=O)C(C)(C)OCC(F)(F)F [Compound 165]"
  Study System: "Human TRPML1 (Homo sapiens, UniProt Q9GZU1, L15A/L16A/L577A/L578A)"
  EC50: "< 100 nM"
- Compound: "CCOC(C)(C)C(=O)N1C[C@H](C)N(c2ncnc3c2c(-c2ccccc2)cn3-c2cc(C#N)ccn2)C[C@H]1C [Compound 170]"
  Study System: "Human TRPML1 (Homo sapiens, UniProt Q9GZU1, L15A/L16A/L577A/L578A)"
  EC50: "< 100 nM"
- Compound: "C[C@@H]1CN(c2nccc3c2c(-c2ccncc2)cn3-c2cccc(F)c2)[C@@H](C)CN1C(=O)C(C)(C)O [Compound 144]"
  Study System: "Human TRPML1 (Homo sapiens, UniProt Q9GZU1, L15A/L16A/L577A/L578A)"
  EC50: "> 2000 nM"

// provenance: patent US20260285866A1
